Data origin: PubChem BioAssay AID1963962

Test system: 967376-340-R-J2-PDC multicell spheroid viability;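 note: luminescence used as surrogate of cell viability; spheroids exposed to agents for 7 days before read-out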
procedure.details: Anticancer human tumor 967376-340-R-J2-PDC patient-derived colon adenocarcinoma cell line growth inhibition [PI3K]
protocol.conditions: second compound 10 µM; first compound 0.0316 µM; active compounds read low
attribute.measured: viability, T/C (%)
Please give a number only; it is taken to be in %.

Sample records with viability, T/C:
CNC(=O)c1ccc(N2C(=S)N(c3ccc(C#N)c(C(F)(F)F)c3)C(=O)C2(C)C)cc1F + Cc1nc(NC(=O)N2CCCC2C(N)=O)sc1-c1ccnc(C(C)(C)C(F)(F)F)c1
63.9
CC1(C)CCC(Nc2ncc(C(F)(F)F)c(-c3c[nH]c4c(P(C)(C)=O)c(C#N)ccc34)n2)CN1 (stereo not given) + Cc1nc(NC(=O)N2CCCC2C(N)=O)sc1-c1ccnc(C(C)(C)C(F)(F)F)c1
54.8
CNC(=O)c1ccc(N2C(=S)N(c3ccc(C#N)c(C(F)(F)F)c3)C(=O)C2(C)C)cc1F + CC(Nc1ncnc2nc[nH]c12)c1cc2cccc(Cl)c2c(=O)n1-c1ccccc1
63.9
C=CC(=O)N1CCN(c2nc(=O)n(-c3c(C)ccnc3C(C)C)c3nc(-c4c(O)cccc4F)c(F)cc23)C(C)C1 (stereo not given) + Cc1nc(NC(=O)N2CCCC2C(N)=O)sc1-c1ccnc(C(C)(C)C(F)(F)F)c1
46.9

Attention now turns to another entry.
viability, T/C value, target or system 967376-340-R-J2-PDC multicell spheroid viability, for C#Cc1c(F)ccc2cc(O)cc(-c3ncc4c(N5CC6CCC(C5)N6)nc(OCC56CCCN5CC(F)C6)nc4c3F)c12 (stereo not given) + Cc1nc(NC(=O)N2CCCC2C(N)=O)sc1-c1ccnc(C(C)(C)C(F)(F)F)c1 : 47.2
